The values you see were collected from patent US11925650B2.

Provide the reported MIC of each item.
tested on: Salmonella Typhimurium NL08.10; assay: MIC of antibiotics, multidrug-resistant isolate NL08.10; format: cell-based; details: Salmonella enterica, TYPHIMURIUM; Table 5

Which value of MIC has been reported for CN(C)[C@@H]1C(O)=C(C(N)=O)C(=O)[C@@]2(O)C(O)=C3C(=O)c4c(O)cccc4[C@@](C)(O)[C@H]3C[C@@H]12 in the records? > 64 µg/mL

For the compound shown here, [H]/N=C(/N)N[C@H]1[C@H](O)[C@@H](O)[C@H](O[C@@H]2O[C@@H](C)[C@](O)(C=O)[C@H]2O[C@@H]2O[C@@H](CO)[C@H](O)[C@@H](O)[C@@H]2NC)[C@@H](N/C(N)=N\[H])[C@@H]1O , give the reported MIC. > 64 µg/mL

Quick check: MIC of CC1(C)S[C@@H]2[C@H](NC(=O)[C@H](N)c3ccccc3)C(=O)N2[C@H]1C(=O)O ? > 64 µg/mL

So what does the record say about MIC for O=C(N[C@H](CO)[C@H](O)c1ccc([N+](=O)[O-])cc1)C(Cl)Cl ? 32 µg/mL
